SYSTEM UNDER TEST: human neutrophil elastase (HNE) (Homo sapiens, UniProt P08246)
Sequence (P08246 30-267): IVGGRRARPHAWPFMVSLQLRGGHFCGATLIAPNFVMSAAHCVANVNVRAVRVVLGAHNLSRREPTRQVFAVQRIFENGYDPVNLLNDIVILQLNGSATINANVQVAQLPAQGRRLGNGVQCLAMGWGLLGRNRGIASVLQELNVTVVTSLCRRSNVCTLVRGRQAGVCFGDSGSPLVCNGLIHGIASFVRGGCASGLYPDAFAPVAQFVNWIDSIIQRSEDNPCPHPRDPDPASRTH
ASSAY NOTES: In vitro inhibition of HNE using a fluorogenic peptide substrate
EXPERIMENTAL PARAMETERS: substrate MeOSuc-Ala-Ala-Pro-Val-AMC, 384 MTP format
METRIC: IC50 (µM)

These recorded examples may help you get a feel for the data.
COMPOUND: COCCOCCCNC(=O)C1C(=O)N(c2cccc(C(F)(F)F)c2)C(C)=C(C(C)=O)C1c1ccc(C#N)cc1 (stereo not drawn) [Example 61]
SYSTEM UNDER TEST: human neutrophil elastase (HNE) (Homo sapiens, UniProt P08246)
IC50, µM: 0.05

COMPOUND: COc1ccc(CN(C)C(=O)C2C(=O)N(c3cccc(C(F)(F)F)c3)C(C)=C(C(C)=O)C2c2ccc(C#N)cc2)cc1 (stereo not drawn) [Example 19]
SYSTEM UNDER TEST: human neutrophil elastase (HNE) (Homo sapiens, UniProt P08246)
IC50, µM: 0.04

COMPOUND: CCOC(=O)N1CCN(C(=O)C2C(=O)N(c3cccc(C(F)(F)F)c3)C(C)=C(C(C)=O)C2c2ccc(C#N)cc2)CC1 (stereo not drawn) [Example 54]
SYSTEM UNDER TEST: human neutrophil elastase (HNE) (Homo sapiens, UniProt P08246)
IC50, µM: 0.06

COMPOUND: CC(=O)C1=C(C)N(c2cccc(C(F)(F)F)c2)C(=O)C(C(=O)N2CCN(CCN3CCOCC3)CC2)C1c1ccc(C#N)cc1 (stereo not drawn) [Example 45]
SYSTEM UNDER TEST: human neutrophil elastase (HNE) (Homo sapiens, UniProt P08246)
IC50, µM: 0.07

I: CC(=O)C1=C(C)N(c2cccc(C(F)(F)F)c2)C(=O)C(C(=O)N(C)c2cccc(C)c2)C1c1ccc(C#N)cc1 (stereo not drawn) [Example 27]
II: CC(=O)C1=C(C)N(c2cccc(C(F)(F)F)c2)C(=O)C(C(=O)N2CCN3CCCC3C2)C1c1ccc(C#N)cc1 (stereo not drawn) [Example 34]
Q: Which entry shows the lesser value of IC50 here, I or II ? Indicate which entry you chose by stating its label.
A: I
(I: 0.03 µM, II: 0.06 µM)

Value source: patent US8097629B2
